The reported numbers originate from paper PMC9352680.

# Measurement Target: T1, PUF4 RNA-binding domain (Saccharomyces cerevisiae, UniProt P25339 537-888)
# T1 sequence: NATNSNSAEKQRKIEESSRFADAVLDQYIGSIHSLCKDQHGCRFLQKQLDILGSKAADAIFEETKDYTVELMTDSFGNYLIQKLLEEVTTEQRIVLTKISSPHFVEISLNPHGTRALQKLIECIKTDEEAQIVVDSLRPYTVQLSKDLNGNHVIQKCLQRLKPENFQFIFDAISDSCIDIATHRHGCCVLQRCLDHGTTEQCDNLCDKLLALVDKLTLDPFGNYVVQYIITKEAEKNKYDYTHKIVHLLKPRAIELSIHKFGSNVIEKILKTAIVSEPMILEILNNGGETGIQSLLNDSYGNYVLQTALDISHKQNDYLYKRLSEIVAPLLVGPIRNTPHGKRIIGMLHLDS
# Test Protocol: Mg; RNA-MaP; 20 mM Na-HEPES pH 7.4, 30 mM KOAc, 0.75 mM MgCl2, 0.1% Tween-20, 5% glycerol, 0.1 mg/mL BSA, 2 mM DTT; 25 C; 0.0125-409.6 nM protein
# Condition Set: tags: N-His6-TEV cleaved; C-SNAP kept, Cy3B-labelled; label: tethered on chip by stalled RNA polymerase
Friendly reminder: Kd below 80 nM is label 1, at or above is label 0.

Worked set:
Binder: ACAAACUUUAUAUUAUUAGCACAAAC (ssRNA) [Id_ii_S3_P5E.3_K5.2_C5.2_[C-2T]_H5.2_A5.1_F5.1_T5.2_[T11G]_[A12C]]
Class Name: label 0
--
Binder: Ib_S4_P5E.1_K5.1_C5.1_H5.1_[T1A]_A5.1_[T6C]_F5.1_T5.1 (ssRNA) RNA: UUUGACAACUGAUCGUUCUUUCUAGUAUCAUUAUUCUUUCUCGAUCAGUUGUCUUU
Class Name: label 0
--
Binder: Ic_S2_P4E.1_K4.1_C4.1_H4.1_A4.1_[A6C]_[T7C]_F4.1_[T8G]_[A9G]_T4.1 (ssRNA) RNA: UUUGAUUAAUAUGAUAUCGUUCUUUCUUGUAUCCGGUUCUUUCUCGAUAUCAUAUUAAUCUUU
Class Name: label 0
--
Binder: ACAAACUGUAUUAUCCCUAACAAAC (ssRNA) [Ie_S3_P5E.1_K5.1_C5.1_H5.1_A5.1_F5.1_[+8CCC]_T5.1]
Class Name: label 1
--
Binder: UCUCUUUUUGUAUAUUAAGUCUCUU (ssRNA) [Id_ii_S1_P4E.2_K4.1_C4.2_[C-2T]_H4.1_A4.1_F4.1_T4.2_[G10A]_[T11G]]
Class Name: label 1
--
Binder: Ib_S2_P4E.1_K4.1_C4.1_H4.1_[G2C]_A4.1_[A6G]_F4.1_T4.1 (ssRNA) RNA: UUUGAUUAAUAUGAUAUCGUUCUUUCUUCUAUGUUAUUCUUUCUCGAUAUCAUAUUAAUCUUU
Class Name: label 0

Task item: Consider Id_iii_S2_P3E.5_K3.1_C3.3_[C-2T]_H3.1_A3.1_F3.1_T3.2 (ssRNA) RNA: UUUGAUUAAUAUGAUAUCGUUCUUUCUUUUUGUAUAUAUAUUCUUUCUCGAUAUCAUAUUAAUCUUU . Does its Kd lie strictly below 80 nM?
Reply: label 1

Task item: Consider ACAAACCAACACUAUUAUCACAAAC (ssRNA) [Id_ii_S3_P4E.4_K4.3_C4.2_[T-1A]_H4.3_A4.1_F4.1_T4.2_[G10T]_[T11C]] . Does its Kd lie strictly below 80 nM?
Reply: label 0

Task item: Consider UCUCUUUCUAUAUAUUAUCUCUCUU (ssRNA) [Id_ii_S1_P4E.3_K4.2_C4.2_[C-2T]_[T-1C]_H4.2_A4.1_F4.1_T4.2_[G10T]_[T11C]] . Does its Kd lie strictly below 80 nM?
Reply: label 1
